Data credit: patent US20210283212A1

- experimental target: human C5 protein (human, UniProt P01031 19-673; P01031 678-1676)
- protocol: cell-based or functional assay
Positions of bridges follow the written chain, without caps; N, C: chain ends. Non-standard residues stand in square brackets, D forms with d. Primed or numbered codes have the meaning given here. mXylyl(3) = bridging moiety between the two residues given in brackets; Trp(7-aza) = N[C@@H](Cc1c[nH]c2ncccc12)C(=O)O; Phg = N[C@H](C(=O)O)c1ccccc1; Tle = CC(C)(C)[C@H](N)C(=O)O; Nva = CCC[C@H](N)C(=O)O; Sar = CNCC(=O)O
property: Avg. IC50, human hemolysis assay (nM)
Give the quantity in nM, number only.

Need Avg. IC50, human hemolysis assay of Ac-[Nva]CY[Trp(7-aza)][Sar][Tle][Nva][Trp(7-aza)]EYP[Phg]P-NH2 (SMILES CCC[C@H](NC(C)=O)C(=O)N[C@@H](CS)C(=O)N[C@@H](Cc1ccc(O)cc1)C(=O)N[C@@H](Cc1c[nH]c2ncccc12)C(=O)N(C)CC(=O)N[C@H](C(=O)N[C@@H](CCC)C(=O)N[C@@H](Cc1c[nH]c2ncccc12)C(=O)N[C@@H](CCC(=O)O)C(=O)N[C@@H](Cc1ccc(O)cc1)C(=O)N1CCC[C@H]1C(=O)N[C@H](C(=O)N1CCC[C@H]1C(N)=O)c1ccccc1)C(C)(C)C) [R3005] , thanks. 66.7

Need Avg. IC50, human hemolysis assay of Ac-CVERFCDVY[Trp(7-aza)]EYP-NH2 (linker 1-6 via mXylyl(3)) [R3142] , thanks. 44.6
